Source of measurements: the RNAGym collection of RNA variant scans (doi:10.1126/science.aae0568)

B1: tRNA (parent)
chain: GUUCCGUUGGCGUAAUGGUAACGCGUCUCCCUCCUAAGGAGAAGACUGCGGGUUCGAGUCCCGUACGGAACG

Variants of: B1
assay details: yeast fitness relative to wild type (ratio to wild type); higher = fitter; tRNA-Arg(CCU), competitive growth, 37 C, YPD
Variants at the floor of the assay were thinned out.
Listed next: entries and their corresponding yeast fitness.
Could you respond with only the numeric value?

Past entries and their recorded results:
[[record]]
mut = "U8C G12C A70C"
number = 0.686

[[record]]
mut = "A40G C49U"
number = 0.883

[[record]]
mut = "A15G C24G C49U"
number = 0.541

[[record]]
mut = "G9A A20G C30U"
number = 0.71

[[record]]
mut = "C24U C30G A45C C61G"
number = 0.568


Prompt: Indicate the recorded yeast fitness value for this variant: C24U A43U G56A
Response: 0.837

Prompt: Indicate the recorded yeast fitness value for this variant: A20U U35C
Response: 0.949

Prompt: Indicate the recorded yeast fitness value for this variant: C30G G38C
Response: 0.741

Prompt: Indicate the recorded yeast fitness value for this variant: A21U U54C
Response: 0.703

Prompt: Indicate the recorded yeast fitness value for this variant: G10C C11A C31U A36U G56C A57U
Response: 0.606

Prompt: Indicate the recorded yeast fitness value for this variant: C27G C61U A69U
Response: 0.532

Prompt: Indicate the recorded yeast fitness value for this variant: C30A U64G
Response: 0.793

Prompt: Indicate the recorded yeast fitness value for this variant: C24G G38C
Response: 0.566

Prompt: Indicate the recorded yeast fitness value for this variant: A45U U47A
Response: 0.786

Prompt: Indicate the recorded yeast fitness value for this variant: G9A A14U A21U A69C
Response: 0.755

Prompt: Indicate the recorded yeast fitness value for this variant: C49G G50C C62U
Response: 0.539

Prompt: Indicate the recorded yeast fitness value for this variant: U2G U13A
Response: 0.822

Prompt: Indicate the recorded yeast fitness value for this variant: A15G A20U G68A
Response: 0.545

Prompt: Indicate the recorded yeast fitness value for this variant: C24G C27G C62A
Response: 0.622

Prompt: Indicate the recorded yeast fitness value for this variant: G58A C62U A69C
Response: 1.1

Prompt: Indicate the recorded yeast fitness value for this variant: C24U C60U
Response: 0.797

Prompt: Indicate the recorded yeast fitness value for this variant: G10A U16C C29U
Response: 0.599
